assay: physchem; assay type: physicochemical; conditions: water, Approximate Solubility
PROPERTY_NAME: solubility

Prompt: Quick one: solubility for CC(C)CCC[C@@H](C)[C@H]1CCC2C3CC=C4C[C@@H](OCCN(CC(=O)[O-])CC(=O)[O][Pt+]5[NH][C@@H]6CCCC[C@H]6[NH]5)CC[C@]4(C)C3CC[C@@]21C (stereo partly shown) ?
Completion: ≤ 10000 µg/mL
